Target: HEK cells stably transfected with tetracycline inducible hNR1 and hNR2A (Homo sapiens, UniProt Q05586+Q12879)
Construct: expressed in transfected cells; host or cells: HEK cells, stably transfected, tetracycline/doxycycline inducible
Sequence (Q12879 23-1464, other chains not shown): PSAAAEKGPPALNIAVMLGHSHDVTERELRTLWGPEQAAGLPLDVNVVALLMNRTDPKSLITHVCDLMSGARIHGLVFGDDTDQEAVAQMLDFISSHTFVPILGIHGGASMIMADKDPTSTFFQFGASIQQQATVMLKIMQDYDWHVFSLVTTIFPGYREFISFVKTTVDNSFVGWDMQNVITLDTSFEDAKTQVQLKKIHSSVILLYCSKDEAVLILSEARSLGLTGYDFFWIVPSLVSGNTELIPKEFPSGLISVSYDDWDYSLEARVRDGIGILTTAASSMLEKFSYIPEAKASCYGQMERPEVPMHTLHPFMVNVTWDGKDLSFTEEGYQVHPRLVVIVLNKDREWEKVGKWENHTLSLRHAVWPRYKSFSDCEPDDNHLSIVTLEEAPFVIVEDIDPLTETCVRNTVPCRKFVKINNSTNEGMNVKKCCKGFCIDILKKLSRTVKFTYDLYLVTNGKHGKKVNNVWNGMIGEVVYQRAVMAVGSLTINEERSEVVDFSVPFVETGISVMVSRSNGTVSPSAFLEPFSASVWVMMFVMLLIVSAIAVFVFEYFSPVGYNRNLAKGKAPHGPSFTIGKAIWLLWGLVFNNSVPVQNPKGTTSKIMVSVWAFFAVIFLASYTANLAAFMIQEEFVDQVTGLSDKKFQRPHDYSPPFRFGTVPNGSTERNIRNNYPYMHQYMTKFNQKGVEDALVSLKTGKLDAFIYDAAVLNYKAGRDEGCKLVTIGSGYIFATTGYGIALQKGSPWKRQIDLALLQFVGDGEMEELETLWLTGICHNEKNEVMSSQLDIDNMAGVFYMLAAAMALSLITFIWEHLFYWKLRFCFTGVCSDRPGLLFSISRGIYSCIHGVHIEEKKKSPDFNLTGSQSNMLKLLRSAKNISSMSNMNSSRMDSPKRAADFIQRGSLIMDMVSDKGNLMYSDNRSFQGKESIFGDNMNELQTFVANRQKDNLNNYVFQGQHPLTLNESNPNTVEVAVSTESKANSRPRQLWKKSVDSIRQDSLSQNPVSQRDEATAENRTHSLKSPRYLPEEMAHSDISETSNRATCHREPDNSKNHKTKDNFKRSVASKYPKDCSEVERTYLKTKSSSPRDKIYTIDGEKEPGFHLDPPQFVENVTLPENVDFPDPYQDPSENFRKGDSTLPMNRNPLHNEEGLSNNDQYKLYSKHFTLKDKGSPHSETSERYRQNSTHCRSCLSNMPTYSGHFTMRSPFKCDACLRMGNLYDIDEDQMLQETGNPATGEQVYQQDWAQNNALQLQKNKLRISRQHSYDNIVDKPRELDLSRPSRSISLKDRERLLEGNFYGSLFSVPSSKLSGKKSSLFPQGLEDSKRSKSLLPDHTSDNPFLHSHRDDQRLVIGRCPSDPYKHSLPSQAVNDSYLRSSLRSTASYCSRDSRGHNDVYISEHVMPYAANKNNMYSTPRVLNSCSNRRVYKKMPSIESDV
Assay: Assay 1: Cell-Based Assay, cytosolic calcium response to positive allosteric modulators (with 30 μM glycine and 300 nM L-glutamate, EC30)
Details: Table 2; responses scaled relative to 100 μM L-glutamate maximal response (100%) and 0 μM L-glutamate (0%)
MEASURED_METRIC: Max % (%)

A. CCN(Cc1cc(=O)n2c(C3CCOCC3)c(C)sc2n1)c1ccc(F)cc1
B. Cc1sc2nc(COc3ccc(F)cc3)cc(=O)n2c1C(C)O (stereo not drawn)
For the pair A and B , which entry has the numerically smaller recorded Max %? Lab log: write the label of the selected item as the result.
B
(B: 49.8%, A: 114%)

P. CNC(=O)c1c(C)sc2nc(Cc3cccc(CO)c3F)cc(=O)n12
Q. CCN(Cc1cc(=O)n2c(CO)c(C)sc2n1)c1ccc(F)cc1
Please indicate which item has the smaller measured Max %: P versus Q I would appreciate it if you answered with the label of your choice.
P
